system-tested: Mcl-1 (Homo sapiens)
Sequence (Q07820 whole entry, species assumed): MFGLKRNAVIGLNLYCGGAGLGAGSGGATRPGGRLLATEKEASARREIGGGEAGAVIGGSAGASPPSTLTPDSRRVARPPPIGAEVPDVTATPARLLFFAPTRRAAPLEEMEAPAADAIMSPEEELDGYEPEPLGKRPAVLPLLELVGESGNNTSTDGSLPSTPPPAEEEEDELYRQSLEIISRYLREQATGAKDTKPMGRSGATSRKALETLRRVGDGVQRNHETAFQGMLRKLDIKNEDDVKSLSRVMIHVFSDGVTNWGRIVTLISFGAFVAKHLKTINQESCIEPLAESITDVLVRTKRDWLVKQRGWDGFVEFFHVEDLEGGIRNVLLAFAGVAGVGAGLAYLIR
method-notes: Inhibition of Mcl-1 (disruption of Mcl-1/Bim interaction)
Format: binding
experimental-setup: compound at 50 μM
Method: In a subsequent study, a structurally diverse library of forty five thio acids and thirty eight sulfonyl azides (identified above) was screened in parallel against Mcl-1 and Bcl-XL using the above mentioned approach. Several potential hit combinations were identified (Table 3). […] After the reaction was completed (approximately one minute, monitored by LC-MS) water (200 μL) was added and the pH was adjusted to 7.0 using 1M HCl solution. […]
metric: % Inhibition (50 μM) Mcl-1 (%)
Kindly answer with a numeric value in %, unit omitted.

In the examples that follow, each entry is paired with its recorded % Inhibition (50 μM) Mcl-1.
- smiles-input: "COc1cccc(CN(CCSc2ccccc2)Cc2ccc(S(=O)(=O)NC(=O)c3ccc4c(ccn4Cc4ccc(C(F)(F)F)cc4C(F)(F)F)c3)cc2)c1"
  % Inhibition (50 μM) Mcl-1 (%): 15.8
- smiles-input: "Cn1cc(C(=O)C2CCCCC2)c2cc(C(=O)NS(=O)(=O)c3ccc(COc4ccc5c(=O)cc(-c6ccccc6)oc5c4)cc3)ccc21"
  % Inhibition (50 μM) Mcl-1 (%): 93.1

--- query ---
Enquiry: Requested read-out: % Inhibition (50 μM) Mcl-1. Entry: `O=C(NS(=O)(=O)c1ccc(CN(CCSc2ccccc2)Cc2ccc3c(c2)OCO3)cc1)c1ccc(-c2ccc(F)cc2)cc1`
Return: 59.5

###

system-tested: Bcl-XL (Homo sapiens)
Sequence (Q07817 whole entry, species assumed): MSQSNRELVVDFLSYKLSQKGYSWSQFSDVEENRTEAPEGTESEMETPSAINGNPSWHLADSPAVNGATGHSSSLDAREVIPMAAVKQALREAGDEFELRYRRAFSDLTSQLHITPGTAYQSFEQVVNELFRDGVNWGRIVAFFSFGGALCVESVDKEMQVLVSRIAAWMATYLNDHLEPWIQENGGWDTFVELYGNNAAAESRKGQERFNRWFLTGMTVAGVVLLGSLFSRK
method-notes: Inhibition of Bcl-XL (disruption of Bcl-XL/Bim interaction)
Assay type: binding
experimental-setup: compound at 25 μM
metric: % Inhibition (25 μM) Bcl-XL (%)
Kindly answer with a numeric value in %, unit omitted.

- molecule: "CN(CCc1ccccc1)Cc1ccc(S(=O)(=O)NC(=O)c2ccc(C(c3c[nH]c4ccccc34)c3c[nH]c4ccccc34)cc2)cc1 [SZ2TA31]"
  system-tested: "Bcl-XL (Homo sapiens)"
  % Inhibition (25 μM) Bcl-XL / %: 14.9

Enquiry: Requested read-out: % Inhibition (25 μM) Bcl-XL. Entry: Cn1cc(C(=O)C2CCCCC2)c2cc(C(=O)NS(=O)(=O)c3ccc(COc4ccc5c(=O)cc(-c6ccccc6)oc5c4)cc3)ccc21 [SZ14TA40]
Return: 27.8

Enquiry: Same question for Cn1cc(C(=O)c2cccs2)c2cc(C(=O)NS(=O)(=O)CCN(CCSc3ccccc3)Cc3ccc4c(c3)OCO4)ccc21 [SZ28TA45] please.
Return: 25.7

###

system-tested: Bcl-XL (Homo sapiens)
method-notes: Inhibition of Bcl-XL (disruption of Bcl-XL/Bim interaction)
Format: binding
experimental-setup: compound at 50 μM
metric: % Inhibition (50 μM) Bcl-XL (%)
Kindly answer with a numeric value in %, unit omitted.

In the examples that follow, each entry is paired with its recorded % Inhibition (50 μM) Bcl-XL.
- smiles-input: "[N-]=[N+]=NS(=O)(=O)c1ccc(CN(CCSc2ccccc2)Cc2ccc(S(=O)(=O)NC(=O)c3ccc(-c4ccc(F)cc4)cc3)cc2)cc1"
  system-tested: "Bcl-XL (Homo sapiens)"
  measurement-unit: "%"
  % Inhibition (50 μM) Bcl-XL: 7.0
- smiles-input: "COc1ccc(Cc2ccc(C(=O)NS(=O)(=O)c3ccc(CN(CCSc4ccccc4)Cc4c(F)cccc4Cl)cc3)cc2)c(OC)c1OC"
  system-tested: "Bcl-XL (Homo sapiens)"
  measurement-unit: "%"
  % Inhibition (50 μM) Bcl-XL: 18.9

Enquiry: Requested read-out: % Inhibition (50 μM) Bcl-XL. Entry: `O=C(NS(=O)(=O)c1ccc(CN(CCSc2ccccc2)Cc2ccc3c(c2)OCO3)cc1)c1ccc(-c2ccc(F)cc2)cc1`
Return: 13.3

Enquiry: Same question for `NS(=O)(=O)c1ccc(CN(CCSc2ccccc2)Cc2ccc(S(=O)(=O)NC(=O)c3ccc(-c4ccccn4)cc3)cc2)cc1` please.
Return: 53.4
